Target: T1, human B7-H4 (purified monomeric recombinant human protein, ACRO biosystems) (human, UniProt Q7Z7D3 29-258, limits assumed, chemically biotinylated (EZ-Link NHS-LC-Biotin) in the yeast display and competition experiments; non-biotinylated in SPR)
T1 construct: Bought recombinant monomeric protein; also called B7x; B7S1
T1 sequence: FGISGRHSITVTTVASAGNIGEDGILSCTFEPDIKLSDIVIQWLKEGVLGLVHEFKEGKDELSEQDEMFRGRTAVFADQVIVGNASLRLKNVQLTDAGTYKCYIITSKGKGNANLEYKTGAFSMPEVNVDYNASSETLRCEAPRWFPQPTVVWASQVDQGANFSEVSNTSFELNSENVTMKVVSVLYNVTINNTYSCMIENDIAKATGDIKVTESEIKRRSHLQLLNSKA
Assay: SPR (Carterra LSA); scFv-Fc captured on anti-human IgG Fc, antigen injected
measurement kind: KD fold-improvement (fold over parental)
Unit fold over parental implied. Number only.

Solved entries:
- binder: "B06 scFv-Fc (scFv, V domains shown, Tested as scFv-Fc fusion (human IgG1 Fc, vector pDNL9) in crude yeast supernatant; Combo 1 library) VH: EVQLVESGGGVVQPGRSLRLSCAASGFTFSNKAMNWVRQAPGKGLEWVSAISGSGATTYYADSVKGRFTISRDNSKNTLYLQMNSLRAEDTAVYYCARKRWYGMDVWGQGTTVTVSS VL: SYELTQPPSVSVAPGKTARITCGGNNIGVKAVHWYQQKPGQAPVLVVYDDSDRPSGIPERFSGSNSGNTATLTISRVEAGDEADYYCQVWDRGMIFGTGTKLTVL"
  measurement kind: "KD fold-improvement"
  unit abbrev: "fold over parental"
  measured result: 76
- binder: "B10 scFv-Fc (scFv, V domains shown, Tested as scFv-Fc fusion (human IgG1 Fc, vector pDNL9) in crude yeast supernatant; Combo 2 library) VH: EVQLVESGGGVVQPGRSLRLSCAASGFTFSTRAMNWVRQAPGKGLEWVSAISGTGDTTYYADSVKGRFTISRDNSKNTLYLQMNSLRAEDTAVYYCARKRWYGMDVWGQGTTVTVSS VL: SYELTQPPSVSVAPGKTARITCGGNNIGSKSVHWYQQKPGQAPVLVVYDDSDRPSGIPERFSGSNSGNTATLTISRVEAGDEADYYCQVWGRYQMIFGTGTKLTVL"
  measurement kind: "KD fold-improvement"
  unit abbrev: "fold over parental"
  measured result: 64
- binder: "A07 scFv-Fc (scFv, V domains shown, Tested as scFv-Fc fusion (human IgG1 Fc, vector pDNL9) in crude yeast supernatant; Combo 2 library) VH: EVQLVESGGGVVQPGRSLRLSCAASGFTFSSRSMNWVRQAPGKGLEWVSAISGSGSTVYYADSVKGRFTISRDNSKNTLYLQMNSLRAEDTAVYYCARKRWYGMDVWGQGTTVTVSS VL: SYELTQPPSVSVAPGKTARITCGGNNIGSKSVHWYQQKPGQAPVLVVYDDSDRPSGIPERFSGSNSGNTATLTISRVEAGDEADYYCQVWDSRTYVFGTGTKLTVL"
  measurement kind: "KD fold-improvement"
  unit abbrev: "fold over parental"
  measured result: 27
- binder: "A06 scFv-Fc (scFv, V domains shown, Tested as scFv-Fc fusion (human IgG1 Fc, vector pDNL9) in crude yeast supernatant; Combo 1 library) VH: EVQLVESGGGVVQPGRSLRLSCAASGFTFGDRAMNWVRQAPGKGLEWVSAISGTGATTYYADSVKGRFTISRDNSKNTLYLQMNSLRAEDTAVYYCARKRWYGMDVWGQGTTVTVSS VL: SYELTQPPSVSVAPGKTARITCGGNNIVTKSVHWYQQKPGQAPVLVVYDDSDRPSGIPERFSGSNSGNTATLTISRVEAGDEADYYCQVWDRGMIFGTGTKLTVL"
  measurement kind: "KD fold-improvement"
  unit abbrev: "fold over parental"
  measured result: 221

Now for the binder whose KD fold-improvement we want.
KD fold-improvement reading for A11 scFv-Fc (scFv, V domains shown, Tested as scFv-Fc fusion (human IgG1 Fc, vector pDNL9) in crude yeast supernatant; Combo 2 library) VH: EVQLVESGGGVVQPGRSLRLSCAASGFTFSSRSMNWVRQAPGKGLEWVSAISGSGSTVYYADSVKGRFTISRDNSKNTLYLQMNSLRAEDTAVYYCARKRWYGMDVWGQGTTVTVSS VL: SYELTQPPSVSVAPGKTARITCGGNNIGSKSVHWYQQKPGQAPVLVVYDDSDRPSGIPERFSGSNSGNTATLTISRVEAGDEADYYCQVWDRGMIFGTGTKLTVL : 123
